test system: SR; experiment: NCI tumour cell line growth inhibition, 48 h
Calls of active or inactive are those of the source. Rule as the data show it: active = GI50 up to about 1.1 µM and inactive = higher.
Measurement Label: GI50

Some solved cases for reference:
C=CCCCCCCCCCCCC1CCC(CC)N1 (stereo not given): 2.47 µM (inactive)
O=S(=O)(O)c1ccc2c(/N=N/c3c(O)ccc4ccccc34)cccc2c1: > 100 µM (inactive)
COc1ccc([C@H]2C=[N+]([O-])O[C@H](OC3CCCC3)[C@@H]2OC(C)=O)cc1OC: 41.8 µM (inactive)
CN(C)Cc1cc(/N=N/c2ccc(Cl)c(Cl)c2)ccc1O: 7.45 µM (inactive)

Pending compound:
Prompt: Please give the measured GI50 for this compound: Clc1nc(-c2ccccc2)nc(Cl)c1Cl
Completion: 2.69 µM (inactive)

----------
test system: SF-268; assay: NCI tumour cell line growth inhibition, 48 h
Active and inactive are the calls of the source. No stated cut-off is given here; in the data, active = GI50 up to about 1.1 µM and inactive = higher.
Bench note: report the call from t = active, f = inactive

# example entries with known answers
Cc1nc(C)c(C(=O)Nc2cccc3c2C(=O)NC3=O)cc1C(=O)Nc1cccc2c1C(=O)NC2=O: f
COC(=O)C[C@H]1CCC2(OCCO2)[C@]1(C)C(=O)OC: f
O=C1NC2(CCCCC2)C2CCCCCC12 (configuration not stated): f
C=CC(C)(O)CCC1C(=C)C(O)CC2C(C)(C)CCCC12C (configuration not stated): f

Prompt: For O=C(O)c1ccccc1CC1Cc2ccccc2C1=O (configuration not stated) , what call appears in the results of this test?
Completion: f

Prompt: Now this one: O=C1OCCC[C@H]2O[C@@H](COCc3ccccc3)C[C@@H]12
Completion: f

Prompt: And the next one, Clc1ccc2c(c1)CC1C[N+]3=C(CCCCC3)C1=C2 (configuration not stated) ?
Completion: f

Prompt: Another compound: N#Cc1c2c(c(Nc3ccc(Cl)cc3)n3c1nc1ccccc13)CCCC2
Completion: f

Prompt: Note, next up: CNC(=S)NNc1ncnc2c1c(-c1ccc(Cl)cc1)cn2-c1ccc(C)cc1
Completion: f

Prompt: Also check CN(C)Nc1cc(=O)[nH]c(=O)[nH]1
Completion: f

Prompt: Lookup COc1ccc2c(c1)N=C1CSC(c3ccccc3Cl)N1C2 (configuration not stated)
Completion: f

----------
test system: MDA-MB-435; experiment: NCI tumour cell line growth inhibition, 48 h
The source made the active and inactive calls. Cut-off read from the data, not from the text of the source: active = GI50 up to about 1.1 µM and inactive = higher.
Output constraint: value belongs to active, inactive

Reference set, count: 5
CC(NC(=O)Cc1ccccc1)NC(=O)C(C)C(=O)NCc1ccccc1 (stereo not drawn): inactive
CCOc1ccc2c(c1)C(/C(C(Cl)=C(Cl)Cl)=[N+](/[O-])OC(=O)c1ccccc1)=N2: inactive
C=CC(C)(O)CCC1C(=C)C(O)CC2C(C)(C)CCCC12C (stereo not drawn): inactive
COC(=O)C(Cc1ccccc1)NP(=O)(O)OCC1OC(n2cc(Br)c(=O)[nH]c2=O)CC1O (stereo not drawn): inactive
O=C1CC(c2ccccc2)[S+]([O-])c2ccccc2N1 (stereo not drawn): inactive

Prompt: Could you please tell me the result logged for O=C(c1ccc([N+](=O)[O-])cc1)C(Br)C(Br)c1ccnc2ccccc12 (stereo not drawn) in this assay?
Completion: inactive

Prompt: And COc1ccc2c(c1)N(C(C)=O)CN1C(=O)CCC21 (stereo not drawn) ?
Completion: inactive

----------
tested on: CCRF-CEM; assay: NCI tumour cell line growth inhibition, 48 h
Active and inactive are the calls of the source. No stated cut-off is given here; in the data, active = GI50 up to about 1.1 µM and inactive = higher.
Your answer must be one of the following: active, inactive

C=C(C)[C@H]1Cc2c(ccc3c2O[C@@H]2COc4cc(OC)c(OC)cc4[C@@H]2C3=O)O1: active

Prompt: Would you mind telling me which call this test gave Nc1ccc(-c2ccc(Nc3cc(S(=O)(=O)O)c(N)c4c3C(=O)c3ccccc3C4=O)cc2)c(S(=O)(=O)O)c1 ?
Completion: inactive

Prompt: Lookup Cc1ccc([N+](=O)[O-])cc1/N=N/C(=O)NNc1cc([N+](=O)[O-])ccc1C
Completion: inactive

----------
system: RXF 393; test: NCI tumour cell line growth inhibition, 48 h
The source made the active and inactive calls. No stated cut-off is given here; in the data, active = GI50 up to about 1.1 µM and inactive = higher.
GI50 values for the molecules below.

# example entries with known answers
O=c1[nH]c(Nc2cccc(C(F)(F)F)c2)nc2[nH]cnc12: > 100 µM (inactive)
COC(=O)[C@@]12OC[C@]34C([C@@H](O)C1O)[C@@]1(C)CC(=O)C(OC(=O)/C=C(/c5ccccc5)C(F)(F)F)=C(C)C1C[C@H]3OC(=O)[C@H](O)[C@H]42 (stereo partly drawn): 16.9 µM (inactive)
COc1ccccc1NC(=S)N/N=C/c1c(C)n(C)n(-c2ccccc2)c1=O: 34.9 µM (inactive)
CCOC1=C2N=C(Cc3ccc(F)cc3)NC2C(=O)c2ccccc21 (stereo not drawn): 18.3 µM (inactive)
COC(=O)C[C@H]1CCC2(OCCO2)[C@]1(C)C(=O)OC: > 100 µM (inactive)

Prompt: Lab request: please report GI50 under test system RXF 393 for CN(C)CCC(=O)/C=C\c1ccccc1
Completion: 15.6 µM (inactive)

Prompt: Would you kindly repeat that for CCCCCCCCCCCCCC(=O)OCC1OC(n2cc(F)c(=O)[nH]c2=O)C(N)C(OC(=O)CCCCCCCCCCCCC)C1O (stereo not drawn) ?
Completion: > 100 µM (inactive)

Prompt: Try Cc1ccc(NC(=S)NNC(=O)c2cc(-c3ccccc3)nc3ccccc23)cc1 next.
Completion: 12.8 µM (inactive)

----------
test system: OVCAR-8; assay: NCI tumour cell line growth inhibition, 48 h
Active and inactive are the calls of the source. Cut-off read from the data, not from the text of the source: active = GI50 up to about 1.1 µM and inactive = higher.
Write down one outcome, taken from active, inactive

C#CC(O)/C=C/CCCCCCC#CC/C=C\CC#CCCCCCC/C=C/C(O)C#C (stereo unspecified): inactive
CO[C@@H](c1ccccc1)[C@H](O)[C@@](O)(c1ccccc1)P(=O)(OC)OC: inactive
CCOC(=O)C(=Cc1ccccc1Cl)C(=O)OCC: active
Cn1c(=O)c(Br)c(C=O)n(CCO[N+](=O)[O-])c1=O: inactive
NC(CSCc1ccc(I)cc1)C(=O)O (stereo unspecified): inactive

Prompt: Test call, this molecule: COc1ccc(OC)c(CC(=O)c2ccc(O)c(C(=O)NCCc3ccc(F)cc3)c2)c1
Completion: inactive

Prompt: Next molecule: N#CC(C#N)=CNC(=S)c1ccncc1
Completion: inactive

Prompt: Try the molecule C=CCCC1CCCCNC1=S (stereo unspecified)
Completion: inactive

Prompt: Now give it for C[C@]12CC[C@@H]3c4cc(OCC(F)(F)F)c(O)cc4CC[C@H]3[C@@H]1CC[C@@H]2O too.
Completion: inactive

Prompt: # repeat for Cc1ccc(NC(S)=Nc2c(C)n(C)n(-c3ccccc3)c2=O)cc1
Completion: inactive

Prompt: Now give it for Cc1ccc(NC(c2ccccc2)P(=O)(c2ccccc2)c2ccccc2)cc1 (stereo unspecified) too.
Completion: inactive

Prompt: Proceed to Cc1ccc2c(c1)C(=O)C1(Cc3ccccc3C1=O)C2 (stereo unspecified)
Completion: inactive

Prompt: Consider next the molecule Nc1cc2nc(O)c(O)nc2cc1N in the same way.
Completion: inactive

Prompt: // next record CCOC(=O)c1c(N2CCOCC2)[nH]c(=O)c(C(c2ccco2)c2c(O)c(C(=O)OCC)c(N3CCOCC3)[nH]c2=O)c1O
Completion: inactive

----------
Item-by-item account of GI50
tested on: SK-MEL-28; test: NCI tumour cell line growth inhibition, 48 h
The source made the active and inactive calls. Rule as the data show it: active = GI50 up to about 1.1 µM and inactive = higher.

Consider the worked cases shown below.
COC(=O)CCC(C)C1CCC2C3C(C[C@H](OC(C)=O)[C@]12C)[C@@]1(C)CCC2(C[C@H]1C[C@H]3OC(C)=O)OOC1(CC[C@]3(C)C4C[C@H](OC(C)=O)[C@]5(C)C(C(C)CCC(=O)OC)CCC5C4[C@H](OC(C)=O)C[C@@H]3C1)OO2 (some centres undefined): > 100 µM (inactive)
CCOC(=O)C1(C(=O)OCC)CN(CC)CN(c2ccccc2)C1: 18.7 µM (inactive)
C[C@]12CC[C@@H]3c4cc(OCC(F)(F)F)c(O)cc4CC[C@H]3[C@@H]1CC[C@@H]2O: 11.8 µM (inactive)

Consider the record given below.
Prompt: Would you mind telling me what GI50 value was observed for Cc1nc2sccn2c1C(=O)N/N=C1\SCC(=O)N1C ?
Completion: > 100 µM (inactive)

----------
tested on: ACHN; assay: NCI tumour cell line growth inhibition, 48 h
Calls of active or inactive are those of the source. Cut-off read from the data, not from the text of the source: active = GI50 up to about 1.1 µM and inactive = higher.
Measurement Label: GI50

Prompt: For Cc1cc(C)c(S(=O)(=O)N2CCCN(S(=O)(=O)c3c(C)cc(C)cc3C)OCCCON(S(=O)(=O)c3c(C)cc(C)cc3C)CCCN(S(=O)(=O)c3c(C)cc(C)cc3C)OCCCO2)c(C)c1 , what is its reported GI50?
Completion: > 100 µM (inactive)

Prompt: What do we get for CCOC(=O)/C(C#N)=C/c1ccnc2ccccc12 ?
Completion: > 100 µM (inactive)

Prompt: Record: COc1ccc(N2C(=O)C3C=CC(n4[nH]c(=O)n(Cc5ccccc5)c4=O)CC3C2=O)cc1 (stereo unspecified)
Completion: > 100 µM (inactive)

Prompt: Do the same for CC(c1ccccc1)N1O[C@]12CC[C@@]1(C)C(CCCC13OCCO3)C2 (stereo partly specified) please
Completion: 16.5 µM (inactive)

Prompt: What about COc1ccccc1C(O)[C@@H]1C[C@@H]2[C@H]3CC[C@@](C)([C@@H]2O1)C3(C)C (stereo partly specified) ?
Completion: 19.1 µM (inactive)

Prompt: How about this compound: O=C(Nc1ccc(N2C(=O)CSC2c2cccs2)cc1)c1ccc(N2C(=O)CSC2c2cccs2)cc1 (stereo unspecified)
Completion: > 100 µM (inactive)

The reported measurements were obtained from ChEMBL document CHEMBL1201862.
